Values were extracted from ChEMBL document CHEMBL4387709.

- METHOD: Selectivity index, ratio of CC50 for human SH-SY5Y cells to EC50 for Enterovirus D68 US/MO/14-18947 infected in human SH-SY5Y cells
- Assay type: toxicity, cell-based
- PROTOCOL CONDITIONS: read-out: Ratio CC50/EC50
MEASURE: selectivity ratio

{"QUERY SMILES": "O=C(NCCN1CCCC1)c1cc(-c2cccs2)nc2ccccc12", "REPORTED MEASUREMENT": 4660}

* * *

Each entry below carries its recorded log10 of CC50.
- Test system: RD
- METHOD: Cytotoxicity against human RD cells after 3 days by neutral red dye-based photometric method
- Assay type: cell-based
- PROTOCOL CONDITIONS: rd, 72 h
MEASURE: log10 of CC50 (log10 of the value in µM)

{"COMPOUND": "O=C(NCCN1CCCC1)c1cc(-c2cccs2)nc2ccccc12", "REPORTED MEASUREMENT": 1.60}
{"COMPOUND": "CCN(CC)CCNC(=O)c1cc(-c2ccc(COC)cc2)nc2ccccc12", "REPORTED MEASUREMENT": 1.67}
{"COMPOUND": "CCN(CC)CCNC(=O)c1cc(-c2ccncc2)nc2ccccc12", "REPORTED MEASUREMENT": 2.24}
{"COMPOUND": "CCN(CC)CCNC(=O)c1cc(-c2ccccc2OC)nc2ccccc12", "REPORTED MEASUREMENT": 1.88}
{"COMPOUND": "CCN(CC)CCNC(=O)c1cc(-c2c(C)noc2C)nc2ccccc12", "REPORTED MEASUREMENT": 2.11}
{"COMPOUND": "CC(C)Oc1cc(C(=O)NCCCN(C)C)c2ccccc2n1", "REPORTED MEASUREMENT": 2.09}
{"COMPOUND": "CCN(CC)CCNC(=O)c1cc(OCc2ccccc2)nc2ccccc12", "REPORTED MEASUREMENT": 1.13}
{"COMPOUND": "Cc1ccc2c(c1)c1c3n2CCNC3CCC1 (stereo unspecified)", "REPORTED MEASUREMENT": 1.28}
{"COMPOUND": "CCN(CC)CCNC(=O)c1cc(-c2ccn[nH]2)nc2ccccc12", "REPORTED MEASUREMENT": 2.12}
{"COMPOUND": "CCCOc1cc(C(=O)NCCN(CC)CC)c2ccccc2n1", "REPORTED MEASUREMENT": 1.67}
{"COMPOUND": "CCN(CC)CCNC(=O)c1cc(OCC(F)(F)F)nc2ccccc12", "REPORTED MEASUREMENT": 1.52}

* * *

- System: RD
- METHOD: Cytotoxicity against human RD cells after 3 days by neutral red dye-based photometric method
- Assay type: cell-based
- PROTOCOL CONDITIONS: rd, 72 h
Please assign 0.0 whenever CC50 is at or above 60 µM, and 1.0 whenever it is below.

{"COMPOUND": "CCN(CC)CCNC(=O)c1cc(-c2cnc(N(C)C)nc2)nc2ccccc12", "ASSAYED SYSTEM": "RD", "QUALITATIVE LABEL": 0.0}
{"COMPOUND": "CCN(CC)CCNC(=O)c1cc(-c2ccc(CN3CCOCC3)cc2)nc2ccccc12", "ASSAYED SYSTEM": "RD", "QUALITATIVE LABEL": 0.0}
{"COMPOUND": "CCN(CC)CCNC(=O)c1cc(-c2ccccc2)nc2ccccc12", "ASSAYED SYSTEM": "RD", "QUALITATIVE LABEL": 1.0}
{"COMPOUND": "CCN(CC)CCNC(=O)c1cc(-c2ccc(Cl)s2)nc2ccccc12", "ASSAYED SYSTEM": "RD", "QUALITATIVE LABEL": 1.0}
{"COMPOUND": "NNC(=O)c1cc(-c2ccccc2)nc2ccccc12", "ASSAYED SYSTEM": "RD", "QUALITATIVE LABEL": 0.0}
{"COMPOUND": "CN(C)CCNC(=O)c1cc(-c2ccccc2)nc2ccc(Cl)cc12", "ASSAYED SYSTEM": "RD", "QUALITATIVE LABEL": 1.0}
{"COMPOUND": "CCN(CC)CCNC(=O)c1cc(OC)nc2ccccc12", "ASSAYED SYSTEM": "RD", "QUALITATIVE LABEL": 0.0}
{"COMPOUND": "CCN(CC)CCNC(=O)c1cc(-c2ccc3c(c2)OCCO3)nc2ccccc12", "ASSAYED SYSTEM": "RD", "QUALITATIVE LABEL": 1.0}
{"COMPOUND": "CCC(C)Oc1cc(C(=O)NCCN(CC)CC)c2ccccc2n1 (centres undefined)", "ASSAYED SYSTEM": "RD", "QUALITATIVE LABEL": 1.0}
{"COMPOUND": "CC(C)Oc1cc(C(=O)NCCN2CCN(C)CC2)c2ccccc2n1", "ASSAYED SYSTEM": "RD", "QUALITATIVE LABEL": 0.0}
{"COMPOUND": "N=C(N)NC(=O)c1cc(-c2ccccc2)nc2ccccc12", "ASSAYED SYSTEM": "RD", "QUALITATIVE LABEL": 0.0}
{"COMPOUND": "CC(C)Oc1cc(C(=O)N2CCN(C)CC2)c2ccccc2n1", "ASSAYED SYSTEM": "RD", "QUALITATIVE LABEL": 0.0}
{"COMPOUND": "CCN(CC)CCNC(=O)c1cc(-c2cccc(OC)c2)nc2ccccc12", "ASSAYED SYSTEM": "RD", "QUALITATIVE LABEL": 1.0}
{"COMPOUND": "CC(C)Oc1cc(C(=O)NC2CCN(C)CC2)c2ccccc2n1", "ASSAYED SYSTEM": "RD", "QUALITATIVE LABEL": 0.0}
{"COMPOUND": "CN(C)CCNC(=O)c1cc(-c2ccccc2)nc2ccc(F)cc12", "ASSAYED SYSTEM": "RD", "QUALITATIVE LABEL": 1.0}
{"COMPOUND": "CCN(CC)CCNC(=O)c1cc(-c2ccsc2)nc2ccccc12", "ASSAYED SYSTEM": "RD", "QUALITATIVE LABEL": 1.0}
{"COMPOUND": "CC(C)Oc1cc(C(=O)NCCN2CCCC2)c2ccccc2n1", "ASSAYED SYSTEM": "RD", "QUALITATIVE LABEL": 1.0}
{"COMPOUND": "CCN(CC)CCNC(=O)c1cc(-c2ccoc2)nc2ccccc12", "ASSAYED SYSTEM": "RD", "QUALITATIVE LABEL": 0.0}
{"COMPOUND": "O=C(NCCCn1ccnc1)c1cc(-c2cccs2)nc2ccccc12", "ASSAYED SYSTEM": "RD", "QUALITATIVE LABEL": 1.0}
{"COMPOUND": "NNC(=O)c1cc(-c2cccs2)nc2ccccc12", "ASSAYED SYSTEM": "RD", "QUALITATIVE LABEL": 0.0}
{"COMPOUND": "CCN(CC)CCNC(=O)c1cc(OC2CCCC2)nc2ccccc12", "ASSAYED SYSTEM": "RD", "QUALITATIVE LABEL": 1.0}
{"COMPOUND": "CC(C)Oc1cc(C(=O)NCCN(C)C)c2ccccc2n1", "ASSAYED SYSTEM": "RD", "QUALITATIVE LABEL": 1.0}
{"COMPOUND": "CCC(CC)Oc1cc(C(=O)NCCN(CC)CC)c2ccccc2n1", "ASSAYED SYSTEM": "RD", "QUALITATIVE LABEL": 1.0}
{"COMPOUND": "CC(C)Oc1cc(C(=O)NCCN)c2ccccc2n1", "ASSAYED SYSTEM": "RD", "QUALITATIVE LABEL": 0.0}
